- study system: human α2β3γ2 GABAARs (benzodiazepine site) (Homo sapiens (Human), UniProt P18507+P47869)
- Sequence (P47869 29-451): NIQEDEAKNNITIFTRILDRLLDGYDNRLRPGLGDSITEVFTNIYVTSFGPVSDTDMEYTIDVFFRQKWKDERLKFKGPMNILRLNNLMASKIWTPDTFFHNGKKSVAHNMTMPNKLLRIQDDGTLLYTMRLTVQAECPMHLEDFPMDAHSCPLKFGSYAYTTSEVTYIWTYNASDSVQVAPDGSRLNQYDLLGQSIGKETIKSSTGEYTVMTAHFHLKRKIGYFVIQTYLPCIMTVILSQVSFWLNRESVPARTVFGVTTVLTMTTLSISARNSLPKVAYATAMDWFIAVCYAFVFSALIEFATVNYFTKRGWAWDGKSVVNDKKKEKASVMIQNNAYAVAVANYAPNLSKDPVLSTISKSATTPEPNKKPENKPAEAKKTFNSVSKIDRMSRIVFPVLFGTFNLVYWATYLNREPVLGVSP
- Sequence (P28472 26-473 partner): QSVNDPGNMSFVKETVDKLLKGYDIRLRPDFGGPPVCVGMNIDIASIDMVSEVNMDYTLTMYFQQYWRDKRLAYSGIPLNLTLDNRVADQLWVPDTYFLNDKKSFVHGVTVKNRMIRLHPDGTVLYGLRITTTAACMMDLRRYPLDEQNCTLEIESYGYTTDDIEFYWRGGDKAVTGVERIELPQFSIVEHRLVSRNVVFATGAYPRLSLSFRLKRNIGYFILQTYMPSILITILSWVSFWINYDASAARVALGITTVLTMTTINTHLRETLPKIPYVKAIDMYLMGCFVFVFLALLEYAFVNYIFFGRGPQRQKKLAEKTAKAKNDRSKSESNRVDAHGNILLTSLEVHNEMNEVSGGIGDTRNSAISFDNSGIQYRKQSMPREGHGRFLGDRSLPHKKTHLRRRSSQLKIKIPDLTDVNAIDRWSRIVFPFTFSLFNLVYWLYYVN
- Sequence (P18507 40-475): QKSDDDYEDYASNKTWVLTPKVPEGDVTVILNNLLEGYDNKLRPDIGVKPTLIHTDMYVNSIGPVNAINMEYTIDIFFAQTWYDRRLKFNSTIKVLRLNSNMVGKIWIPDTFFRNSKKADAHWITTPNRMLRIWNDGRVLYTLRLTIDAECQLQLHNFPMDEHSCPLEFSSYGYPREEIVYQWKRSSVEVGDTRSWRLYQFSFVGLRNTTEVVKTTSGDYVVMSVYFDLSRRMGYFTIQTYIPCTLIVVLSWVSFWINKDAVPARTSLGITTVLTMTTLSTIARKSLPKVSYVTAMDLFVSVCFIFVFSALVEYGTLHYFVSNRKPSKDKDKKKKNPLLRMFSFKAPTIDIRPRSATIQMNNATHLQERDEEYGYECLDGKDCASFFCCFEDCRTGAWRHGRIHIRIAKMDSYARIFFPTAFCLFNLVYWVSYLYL
- protocol details: In vitro radioligand binding assay ([3H]Ro15-1788 displacement), α2-GABAAR Ki
# Lookup of reported log10 of Ki keyed by entry
Values are log10 of Ki in nM.

molecule	log10 of Ki
CCCNC(=O)c1c(N)c2cccc(-c3cccnc3OC)c2n(C)c1=O	0.79
COc1ccncc1-c1cccc2c(N)c(C(=O)NCC3CC3)c(=O)[nH]c12	0.30
CCCNC(=O)c1c(N)c2cccc(-c3cnccn3)c2[nH]c1=O	0.70
CCCNC(=O)c1c(N)c2cccc(-c3cc(OCc4nnc(C(F)(F)F)o4)ccc3F)c2[nH]c1=O	-0.18
CCCNC(=O)c1c(N)c2cccc(-c3cc(OCc4ccccn4)ccc3F)c2[nH]c1=O	-0.52
CCNC(=O)c1c(N)c2cccc(-c3cnccc3OC)c2[nH]c1=O	0.82

Quick one: log10 of Ki for `CCCNC(=O)c1c(N)c2cccc(-c3cc(OCc4cn(C)nn4)ccc3F)c2[nH]c1=O` ?
-0.19

Quick one: log10 of Ki for `CCCNC(=O)c1c(N)c2cccc(-c3cc(COc4ccc(C)nc4)ccc3F)c2[nH]c1=O` ?
-0.24

Quick one: log10 of Ki for `CCCNC(=O)c1c(N)c2cccc(-c3cc(COc4ccccn4)ncc3F)c2[nH]c1=O` ?
0.32

Quick one: log10 of Ki for `CCCNC(=O)c1c(N)c2cccc(-c3cc(OCc4cscn4)ccc3F)c2[nH]c1=O` ?
-0.51

Measured values drawn from patent US20250197368A1 for this set.
